Note to self: these compounds have IC50 reported for Dipeptidyl peptidase 4 (Rattus norvegicus) in various publications.
property-measured: IC50 (nM)

A = N#CC1CC=NN1C(=O)CNC1CCC(Nc2ccc([N+](=O)[O-])cn2)CC1 (stereo unspecified)
B = CCC(C)[C@H](N)C(=O)N1CCCN1C(=O)Nc1ccc(C(F)(F)F)cc1 (stereo partly specified)
Rank A against B by their IC50 values and give the higher one. Record your answer as the label of the chosen record.
B

1 = N#Cc1ccc(NCCNCC(=O)N2N=CCC2C#N)nc1 (stereo unspecified)
2 = N#Cc1ccc(NCCNCC(=O)N2N=CC[C@H]2C#N)nc1
Which numeric IC50 is bigger, that of 1 or that of 2 ? # answer = label of selected item
1

I = N#C[C@@H]1CCCN1C(=O)[C@@H]1C[C@H](NC(=O)c2ccccc2)CN1
II = CCC(C)[C@H](N)C(=O)N1CCCN1C(=O)Nc1cccc(C#N)c1 (stereo partly specified)
Which record shows the lower IC50: the first, I , or the second, II ? Please respond with the label that marks your chosen entry.
I

P = CC(C)C[C@H](N)C(=O)N1CCCN1C(=O)Nc1cccc([N+](=O)[O-])c1
Q = CC(C)[C@@H](N)C(=O)N1N=CCC1C#N (stereo partly specified)
Of the two listed items, P and Q , which carries the larger IC50 figure? Identify your selection by its label.
P

----------
Target or system Dipeptidyl peptidase 4 (Rattus norvegicus); metric IC50; compiled from varied reports.
property-measured: IC50 (nM)

I = N#Cc1ccc(N[C@@H]2CN[C@H](C(=O)N3CCC[C@H]3C#N)C2)cc1C#N
II = CCC(C)[C@H](N)C(=O)N1CCCN1C(=O)OCc1ccccc1 (stereo partly drawn)
III = N#CC1CC=NN1C(=O)CNC1CCCCCCC1 (stereo not drawn)
List the 3 compounds shown above, ordered by increasing IC50. Put the labels in the requested order and list them out.
I, III, II
